Could you please report measured Ki for the items listed next?
# target.system: Adenosine receptor A1 (Rattus norvegicus, UniProt P25099)
# assay.text: Displacement of [3H]DPCPX from adenosine receptor A1 in Sprague-Dawley rat whole brain membranes after 60 mins in presence of GTP by liquid scintillation counting method
# Parameters: species or system Membrane
Give bare numbers, in nM.

CCn1c(=O)c2c(nc(COc3ccccc3)n2C)n(CC)c1=O: 892

Give its Ki value. Item: CCn1c(=O)c2c(nc(COc3ccc(Br)cc3)n2C)n(CC)c1=O 267

###

# target.system: UniProtKB P25099
# assay.text: Displacement of [3H]DPCPX from adenosine receptor A1 in Sprague-Dawley rat whole brain cell membranes after 60 mins by liquid scintillation counting
So I've got a bunch of molecules here, and I need their log10 of Ki values.
Use the decimal logarithm of Ki (µM).

CCn1c(=O)c2c(nc(COc3ccc(Br)cc3)n2C)n(CC)c1=O: -0.58

# per-item lookup of log10 of Ki; items listed below
1. COc1ccc(OCc2nc3c(c(=O)n(C)c(=O)n3C)n2C)cc1
2. Cc1ccc(OCc2nc3c(c(=O)n(C)c(=O)n3C)n2C)cc1
3. Cn1c(=O)c2c(nc(COc3ccc(Br)cc3)n2C)n(C)c1=O
4. Cn1c(=O)c2c(nc(COc3ccc(F)cc3)n2C)n(C)c1=O
5. CCn1c(=O)c2c(nc(COc3ccc(Cl)cc3)n2C)n(CC)c1=O
6. CCn1c(=O)c2c(nc(COc3ccc(C)cc3)n2C)n(CC)c1=O
7. CCn1c(=O)c2c(ncn2C)n(CC)c1=O

[0.67, 0.83, 0.57, 0.96, -0.01, 0.15, 0.75]

###

# target.system: Adenosine receptor A2a (Rattus norvegicus, UniProt P30543)
# Sequence (P30543 whole entry): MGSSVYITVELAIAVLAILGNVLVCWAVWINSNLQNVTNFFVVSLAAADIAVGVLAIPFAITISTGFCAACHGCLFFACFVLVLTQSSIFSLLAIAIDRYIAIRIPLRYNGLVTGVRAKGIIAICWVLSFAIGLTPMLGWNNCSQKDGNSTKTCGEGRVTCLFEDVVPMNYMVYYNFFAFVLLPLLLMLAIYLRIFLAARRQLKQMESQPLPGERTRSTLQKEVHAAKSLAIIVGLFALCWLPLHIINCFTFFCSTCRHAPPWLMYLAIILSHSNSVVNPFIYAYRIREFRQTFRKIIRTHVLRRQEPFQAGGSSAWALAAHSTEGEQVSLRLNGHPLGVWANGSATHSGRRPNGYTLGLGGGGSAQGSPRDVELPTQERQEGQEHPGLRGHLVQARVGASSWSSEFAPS
# assay.text: Displacement of [3H]NECA from adenosine receptor A2A in Sprague-Dawley rat striatal membranes after 60 mins by liquid scintillation counting
# Parameters: species or system Striatum, Membrane
measured.endpoint: pKi
One number for each entry, as −log10 of the molar value.

COc1ccc(OCc2nc3c(c(=O)n(C)c(=O)n3C)n2C)cc1: 5.62
Cn1c(=O)c2c(nc(COc3ccc(Br)cc3)n2C)n(C)c1=O: 5.76
CCn1c(=O)c2c(nc(COc3ccc(F)cc3)n2C)n(CC)c1=O: 6.08
CCn1c(=O)c2c(nc(COc3ccc(OC)cc3)n2C)n(CC)c1=O: 6.63
Cn1c(=O)c2c(nc(COc3ccc(F)cc3)n2C)n(C)c1=O: 5.59

Batch: pKi for all items listed.
1. CCn1c(=O)c2c(nc(COc3ccc(Br)cc3)n2C)n(CC)c1=O
2. CCn1c(=O)c2c(nc(COc3ccc(Cl)cc3)n2C)n(CC)c1=O
3. CCn1c(=O)c2c(nc(COc3ccc(C)cc3)n2C)n(CC)c1=O
4. CCn1c(=O)c2c(ncn2C)n(CC)c1=O
5. Cc1ccc(OCc2nc3c(c(=O)n(C)c(=O)n3C)n2C)cc1

1. 5.87
2. 5.98
3. 5.89
4. 5.57
5. 5.44

Which pKi value is on record for Cn1c(=O)c2c(nc(COc3ccc(Cl)cc3)n2C)n(C)c1=O ? 6.03

###

# target.system: Adenosine receptor A1 (Rattus norvegicus)
# Sequence (P25099 whole entry): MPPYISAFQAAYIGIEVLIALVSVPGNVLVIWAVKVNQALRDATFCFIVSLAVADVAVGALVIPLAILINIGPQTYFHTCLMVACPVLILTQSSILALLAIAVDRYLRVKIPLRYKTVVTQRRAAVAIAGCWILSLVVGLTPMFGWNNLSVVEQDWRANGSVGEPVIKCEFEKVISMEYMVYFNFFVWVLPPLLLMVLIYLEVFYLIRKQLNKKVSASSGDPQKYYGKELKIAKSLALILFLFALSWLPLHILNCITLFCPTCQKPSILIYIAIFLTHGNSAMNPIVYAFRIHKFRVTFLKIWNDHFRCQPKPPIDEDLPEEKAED
# assay.text: Displacement of [3H]DPCPX from adenosine receptor A1 in Sprague-Dawley rat whole brain cell membranes after 60 mins by liquid scintillation counting
measured.endpoint: pKi
One number for each entry, as −log10 of the molar value.

Cn1c(=O)c2c(nc(COc3ccc(Cl)cc3)n2C)n(C)c1=O: 5.25
CCn1c(=O)c2c(nc(COc3ccc(F)cc3)n2C)n(CC)c1=O: 5.91

The record that follows has no pKi shown yet.
Give its pKi value. Item: CCn1c(=O)c2c(nc(COc3ccc(OC)cc3)n2C)n(CC)c1=O 5.91
